B1: tRNA (parent)
chain: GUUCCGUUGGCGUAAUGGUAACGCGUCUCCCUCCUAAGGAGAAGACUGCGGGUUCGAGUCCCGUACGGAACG

Variants of: B1
Assay: yeast fitness relative to wild type (ratio to wild type); higher = fitter; tRNA-Arg(CCU), competitive growth, 37 C, YPD
Variants at the floor of the assay were thinned out.
yes means recorded yeast fitness is 0.6 or above; no means it is below 0.6.

Completed entries (count: 5):
MUTATION ANNOTATION: U7G C11G C34U G41A A65C C66U
CLASS: no
--
MUTATION ANNOTATION: C24U C34U U59G
CLASS: no
--
MUTATION ANNOTATION: G39C A40G
CLASS: yes
--
MUTATION ANNOTATION: C11A A20G C46U G50C C60A A70C
CLASS: yes
--
MUTATION ANNOTATION: G52A C66G G68C
CLASS: yes

Shifting focus to the variant that follows.
Please indicate if the recorded yeast fitness for C46A G48C meets or exceeds 0.6.
yes
